TARGET_OF_ASSAY: Geranylgeranyl pyrophosphate synthase (Homo sapiens) (UniProt O95749)
Sequence (O95749 whole entry): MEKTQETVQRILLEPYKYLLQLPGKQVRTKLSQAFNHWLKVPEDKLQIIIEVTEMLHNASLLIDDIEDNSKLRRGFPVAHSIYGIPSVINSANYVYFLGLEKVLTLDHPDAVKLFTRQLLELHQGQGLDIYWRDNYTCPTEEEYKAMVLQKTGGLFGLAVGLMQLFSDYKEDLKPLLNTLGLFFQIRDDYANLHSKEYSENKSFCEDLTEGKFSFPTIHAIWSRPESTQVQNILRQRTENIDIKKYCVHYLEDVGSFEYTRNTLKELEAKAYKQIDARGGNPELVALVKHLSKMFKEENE
TEST_SUMMARY: Inhibition of GST-tagged human recombinant GGDPS expressed in BL21 gold bacteria at 10 uM by liquid scintillation counting
Activity calls are given as the source filed them. No cut-off for these calls is given here.
# output must be one of YES for active, NO for inactive

In: Hi team, can someone confirm the assay call for "CC(C)=CCc1cccc(CC(P(=O)(O)O)P(=O)(O)O)c1" ?
Out: NO

In: Hey, what did the test say about "CC(C)=CCc1ccc(CC(P(=O)(O)O)P(=O)(O)O)cc1" ?
Out: NO

---
In: Dear colleague, could you share the recorded outcome for "CC(C)=CCC/C(C)=C/CC(Cc1ccc(CC=C(C)C)cc1)(P(=O)(O)O)P(=O)(O)O" when you have a moment?
Out: YES

In: // param item: "O=P(O)(O)C(Cc1ccccc1)P(=O)(O)O" ; yields the recorded call
Out: NO

In: Called result for "CC(C)=CCC/C(C)=C/CC(Cc1cccnc1)(P(=O)(O)O)P(=O)(O)O"
Out: YES

In: Name the outcome recorded for "CC(C)=CCC/C(C)=C/CC(Cc1ccccc1)(P(=O)(O)O)P(=O)(O)O" in the assay.
Out: YES

In: Check the results log: what was the call for "CC(C)=CCC/C(C)=C/CC(Cc1cccc(CC=C(C)C)c1)(P(=O)(O)O)P(=O)(O)O" ?
Out: YES

###

TARGET_OF_ASSAY: UniProt:O95749
TEST_SUMMARY: Inhibition of GST-tagged human recombinant GGDPS expressed in BL21 gold bacteria by liquid scintillation counting
ATTRIBUTE_MEASURED: IC50
Answer by giving the amount and then stating its unit.

In: Give IC50 (UniProt:O95749) of the following compound: "CC(C)=CCC/C(C)=C/CC(Cc1ccc(CC=C(C)C)cc1)(P(=O)(O)O)P(=O)(O)O"
Out: 800 nM

Alright, here's another compound for you.
In: Query IC50 on UniProt:O95749 for "CC(C)=CCC/C(C)=C/CC(Cc1cccc(CC=C(C)C)c1)(P(=O)(O)O)P(=O)(O)O"
Out: 250 nM
